// data source = ChEMBL document CHEMBL1132377

test: Inhibition constant(Ki) for inhibition of PPIase activity of Escherichia coli trigger factor (Conc=12 nM) of FKBPs family
pKi: −log10 of the molar value.
endpointLabel: pKi

Qu. For C[C@@H]1C[C@@H]([C@H](O)CC2CC(=O)NC(=O)C2)C(=O)[C@@H](C)C1 [CYCLOHEXIMIDE] , what is its reported pKi?
Ans. < 3.70

* * *

tested on: L929; assay: Cytotoxicity against mouse L-929 fibroblast cell line, by means of standard proliferation assay; assay type: functional, cell-based
endpointLabel: IC50 (mg/L)
Provide the reading as a plain figure in mg/L.

Consider the reported IC50 for these molecules:
[[record]]
smilestext = "CC(=O)O[C@H](CC1CC(=O)NC(=O)C1)[C@@H]1C[C@@H](C)C[C@H](C)C1=O"
measuredresult = 9.3

[[record]]
smilestext = "C[C@@H]1C[C@@H]([C@H](O)CC2CC(=O)N(Cc3ccccc3)C(=O)C2)C(=O)[C@@H](C)C1"
measuredresult = 135

[[record]]
smilestext = "CCOC(=O)CCCN1C(=O)CC(C[C@@H](O)[C@@H]2C[C@@H](C)C[C@H](C)C2=O)CC1=O"
measuredresult = 145


// next item, IC50 requested
Qu. Bench note: what IC50 did `C[C@@H]1C[C@@H]([C@H](O)CC2CC(=O)NC(=O)C2)/C(=N\O)[C@@H](C)C1` show?
Ans. 86.9

* * *

biological target: Peptidyl-prolyl cis-trans isomerase FKBP1A (Homo sapiens)
Sequence (P62942 whole entry): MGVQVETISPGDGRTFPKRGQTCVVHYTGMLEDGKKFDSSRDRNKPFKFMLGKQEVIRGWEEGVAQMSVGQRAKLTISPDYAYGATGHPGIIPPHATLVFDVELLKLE
endpointLabel: Ki (µM)
Number in µM, nothing else.

Qu. Could you share which Ki value was measured for C[C@@H]1C[C@@H]([C@H](O)CC2CC(=O)NC(=O)C2)C(=O)[C@@H](C)C1 [CYCLOHEXIMIDE] ?
Ans. 3.4

* * *

experiment: Inhibition constant(Ki) for inhibition of PPIase activity of human Cyclophilin 18 (Conc=2 nM)
endpointLabel: Ki

Qu. Need Ki of C[C@@H]1C[C@@H]([C@H](O)CC2CC(=O)NC(=O)C2)C(=O)[C@@H](C)C1 [CYCLOHEXIMIDE] , thanks.
Ans. > 200 µM

* * *

system: L929; assay: Cytotoxicity against mouse L-929 fibroblast cell line, by means of standard proliferation assay; type: functional, cell-based
Some compounds, each annotated with its measured IC50.
Report the figure in µg/mL without appending any unit label.

Worked cases, IC50 given:
[[record]]
smilestext = "C[C@@H]1C[C@@H]([C@H](O)CC2CC(=O)N(Cc3ccc(C#N)cc3)C(=O)C2)C(=O)[C@@H](C)C1"
measuredtarget = "L929"
endpointlabel = "IC50"
measuredresult = 1.4

[[record]]
smilestext = "C[C@@H]1C[C@@H]([C@H](O)CC2CC(=O)N(CC(N)=O)C(=O)C2)C(=O)[C@@H](C)C1"
measuredtarget = "L929"
endpointlabel = "IC50"
measuredresult = 5.3


# ---- query compound ----
Qu. Form entry - test system: L929; read-out: IC50; compound: `CCOC(=O)CN1C(=O)CC(C[C@@H](O)[C@@H]2C[C@@H](C)C[C@H](C)C2=O)CC1=O`
Ans. 76.7

* * *

experiment: Inhibition constant(Ki) for inhibition of PPIase activity of Escherichia coli SlyD (Conc=2 uM) of FKBPs family
endpointLabel: Ki

Qu. Bench note: what Ki did C[C@@H]1C[C@@H]([C@H](O)CC2CC(=O)NC(=O)C2)C(=O)[C@@H](C)C1 [CYCLOHEXIMIDE] show?
Ans. > 200 µM
